- target_or_test_system: Sterol 14-alpha demethylase (Trypanosoma cruzi (strain CL Brener)) (UniProt Q7Z1V1)
- Sequence (Q7Z1V1 whole entry, looked up): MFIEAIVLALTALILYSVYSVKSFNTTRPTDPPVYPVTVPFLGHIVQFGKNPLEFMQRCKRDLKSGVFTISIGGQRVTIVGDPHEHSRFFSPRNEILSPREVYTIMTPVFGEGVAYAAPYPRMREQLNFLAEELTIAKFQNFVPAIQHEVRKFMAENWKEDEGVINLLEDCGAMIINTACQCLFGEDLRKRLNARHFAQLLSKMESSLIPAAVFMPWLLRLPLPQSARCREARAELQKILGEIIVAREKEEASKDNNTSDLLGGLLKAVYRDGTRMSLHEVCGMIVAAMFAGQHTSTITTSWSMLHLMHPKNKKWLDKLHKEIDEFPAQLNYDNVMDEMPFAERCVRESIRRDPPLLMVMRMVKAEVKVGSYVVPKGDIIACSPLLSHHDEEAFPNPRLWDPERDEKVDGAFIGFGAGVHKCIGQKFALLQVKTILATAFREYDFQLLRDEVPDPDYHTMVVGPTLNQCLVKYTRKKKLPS
- experiment_notes: Inhibition of Trypanosoma cruzi recombinant sterol 14-alpha-demethylase assessed as drug/enzyme molar ratio required to produce 50 percent decrease in turnover number
Activity reference
# answer = number (no unit)

Some compounds with known Activity results, for comparison:
compound	Activity
CO[C@](c1ccc(Cl)cc1)(c1ccc2c(c1)c(-c1cccc(Cl)c1C)cc(=O)n2C)c1cncn1C (racemic)	0.62
CC(=O)N1CCN(c2ccc(OCC3COC(Cn4ccnc4)(c4ccc(Cl)cc4Cl)O3)cc2)CC1 (stereo unspecified) [KETOCONAZOLE]	0.75

IN: Requested read-out: Activity. Entry: Cn1cncc1[C@@](N)(c1ccc(Cl)cc1)c1ccc2c(c1)c(-c1cccc(Cl)c1)cc(=O)n2C [TIPIFARNIB]
OUT: 0.48

IN: GET /values?readout=Activity&item= Cn1cncc1[C@](N)(c1ccc(Cl)cc1)c1ccc2c(c1)c(-c1cccc(Cl)c1)cc(=O)n2C [(S)-TIPIFARNIB]
OUT: 0.74

IN: Using the record for Cn1cncc1[C@@](N)(c1ccc(Cl)cc1)c1ccc2c(c1)c(-c1cccc3ccccc13)cc(=O)n2C (racemic) , report its Activity.
OUT: 0.85

IN: Form field: reported Activity of Cc1c(Cl)cccc1-c1cc(=O)n(C)c2ccc([C@](N)(c3ccc(Cl)cc3)c3cncn3C)cc12 (racemic)
OUT: 0.65
